- TEST DESCRIPTION: DUX4 transcriptional activity inhibition in cells – 293T cells, Gaussia and Italica luciferase, primary screen (AID 1224904);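 also: 0% = median of neutral control wells and -100% = median of positive control wells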
- CONDITION DETAILS: 293T-iDUX4 ZSCAN4-Gaussia luciferase reporter, 24 h; hits give low values; concentration not given here
Screen size: about 37,000 compounds; about 290 (0.78%) were called active. Inconclusive results (about 10%) are left out. Many of the other results were omitted from the sample, so actives are more common in it than they were.
PROPERTY LABEL: activity change, negative = inhibition (%)
Report the figure in % without appending any unit label.

{"COMPOUND": "CN1C(=O)c2cc(NC(=O)c3ccc(Cl)cc3)ccc2OC[C@@H]2O[C@@H](CC(=O)O)CC[C@H]21", "activity change, negative = inhibition [%]": 3.27}
{"COMPOUND": "Cc1cc(C(=O)Nc2ccc3c(c2)C(=O)N(C)[C@H]2CC[C@H](CC(=O)NCC(F)(F)F)O[C@@H]2CO3)no1", "activity change, negative = inhibition [%]": -3.18}
{"COMPOUND": "CCS(=O)(=O)N1CCC2(CC1)CN[C@H](CO)c1c2c2ccc(OC)cc2n1C", "activity change, negative = inhibition [%]": 14.5}

// query activity change, negative = inhibition value for entry CC=Cc1ccc2n(c1=O)C[C@@H]1[C@@H](CO)[C@H](C(=O)NCCCN3CCOCC3)[C@H]2N1Cc1cocn1 (mixture of isomers) -1.75
